Data provenance is PubChem BioAssay (NCI).

# Experiment Summary: NCI Yeast Anticancer Drug Screen. Data for the rad52 strain (AID 147);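 also: 0% = growth of vehicle-treated control cultures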
# Experimental Context: S. cerevisiae rad52 mutant growth inhibition; at 33.0 µM; active compounds read high
# Protocol: Growth inhibition of yeast strains with defined genetic alterations is measured as a screen for potential anti-cancer activity. Selected strains with alterations in DNA damage repair or cell cycle control were exposed to compounds and growth inhibition was measured relative to vehicle treated controls. The strain used in this assay is rad52
The panel holds about 79,000 compounds, 15% with a hit somewhere; the sample as a whole holds those more often. Activity calls are given as the source filed them. Rule as the data show it: active = growth inhibition above about 70%; inactive = the rest.

{"Compound": "O=CC1(F)CC1(c1ccccc1)c1ccccc1 (centres undefined)", "growth inhibition": "1% (inactive)"}
{"Compound": "CCOP(=O)(OCC)/C(C#N)=C\\c1cccc2ccccc12", "growth inhibition": "92% (active)"}
{"Compound": "Cc1c2c(nc3ccccc13)C(=O)c1cccnc1C2=O", "growth inhibition": "75% (active)"}
{"Compound": "Clc1ccc(/C(=C\\c2ccccc2)Cn2ccnc2)cc1", "growth inhibition": "86% (active)"}

====

# Experiment Summary: NCI Yeast Anticancer Drug Screen. Data for the mlh1 rad18 strain (AID 175)
# Experimental Context: S. cerevisiae mlh1 rad18 strain growth inhibition; at 50.0 µM
Compounds without any hit were thinned out: in the full panel of roughly 79,000, 15% have a hit. The source made the active and inactive calls. Cut-off read from the data, not from the text of the source: active = growth inhibition above about 70%; inactive = the rest.
Labels: active, inactive

{"Compound": "O=S(=O)(c1cccc(C(F)(F)F)c1)N1c2ccccc2-n2cccc2C1c1cccnc1 (stereo not given)", "Group": "active"}
{"Compound": "CCOC(=O)Nc1ccc(C)c(NC(=O)OCC)c1", "Group": "inactive"}
{"Compound": "CC(=O)/C=C/c1cc([N+](=O)[O-])ccc1O", "Group": "active"}
{"Compound": "Nc1ccc2cc(Br)ccc2c1Br", "Group": "active"}
{"Compound": "O=C(O)c1c2ccc(Cl)cc2nc2[nH]c(=O)[nH]c(=O)c12", "Group": "inactive"}
{"Compound": "CC(C)[Si]1(C(C)C)OCC2OC(n3cnc4c(N)ncnc43)C(N)C2O[Si](C(C)C)(C(C)C)O1 (stereo not given)", "Group": "active"}
{"Compound": "COc1cc(OC)c(CSCC(NC(=O)OCC2c3ccccc3-c3ccccc32)C(=O)O)c(OC)c1 (stereo not given)", "Group": "active"}
{"Compound": "CC(/C=C/c1ccc([N+](=O)[O-])o1)=N/N1CC(CN2CCOCC2)OC1=O (stereo not given)", "Group": "active"}
{"Compound": "COc1ccccc1NC(=O)c1ccc(Cl)cc1", "Group": "inactive"}
{"Compound": "O=C(NO)c1coc2ccccc2c1=O", "Group": "inactive"}

====

# Experiment Summary: NCI Yeast Anticancer Drug Screen. Data for the bub3 strain (AID 167)
# Experimental Context: S. cerevisiae bub3 mutant strain, at 50.0 µM
The panel holds about 79,000 compounds, 15% with a hit somewhere; the sample as a whole holds those more often. Active and inactive are the calls of the source. No stated cut-off is given here; in the data, active means growth inhibition above about 70%; inactive means the rest.
Possible outcomes: active, inactive

{"Molecule": "NC(=S)N1N=C2c3ccccc3CC[C@@H]2[C@@H]1c1ccccc1", "Group": "active"}
{"Molecule": "O=S(=O)(NNc1ccccc1)c1ccccc1", "Group": "inactive"}
{"Molecule": "COc1ccccc1NC(=O)c1ccc(Cl)cc1", "Group": "inactive"}
{"Molecule": "C[n+]1c(-c2ccc(/C=N/NC(=O)c3ccc(C(=O)N/N=C/c4ccc(-c5cn6ccccc6[n+]5C)cc4)cc3)cc2)cn2ccccc21", "Group": "inactive"}
{"Molecule": "Cc1ccc([N+](=O)[O-])c2c(NCCC[N+](C)(C)[O-])c3ccccc3nc12", "Group": "inactive"}
{"Molecule": "CC(C)S(=O)(=O)/C=C\\S(=O)(=O)C(C)C", "Group": "inactive"}
{"Molecule": "ClCCCOc1c(Cl)cc(Cl)cc1Cl", "Group": "inactive"}
{"Molecule": "Cc1oc2ccccc2c(=O)c1Cn1nnc2ccccc21", "Group": "inactive"}
{"Molecule": "CCN(CC)CC(=O)c1ccc2cc(Cl)c3ccccc3c2c1", "Group": "active"}
{"Molecule": "CSc1nc(-c2ccccc2)nc(=[N+]2CCOCC2)s1", "Group": "active"}
{"Molecule": "Cc1cccc2c(Cl)c3cccc(C)c3nc12", "Group": "inactive"}
{"Molecule": "CC(C)OC(=O)NNc1cc(Cl)ccc1Cl", "Group": "active"}
{"Molecule": "CCOP(=O)(OCC)/C(C#N)=C/c1cccc(Oc2ccccc2)c1", "Group": "active"}
{"Molecule": "CCCNC(=O)OCc1c(COC(=O)NCCC)c(-c2ccc(Cl)c(Cl)c2)n2c1CCC2", "Group": "inactive"}
{"Molecule": "CN(C)/C(=N/C(=S)Nc1ccccc1)SCc1ccccc1", "Group": "active"}
{"Molecule": "CCCCCCCN1C(=O)c2ccccc2C1=O", "Group": "active"}
{"Molecule": "CC(=O)O/N=C1C=C/C(=C(/C#N)c2ccccc2)C=C/1C", "Group": "active"}
{"Molecule": "CCN(CC)C(=S)N/N=C(\\C)c1ccccc1O", "Group": "active"}
{"Molecule": "CCN1CCC(O)(c2ccc(Oc3ccc(C)cc3)cc2)C(C(=O)c2ccc(Oc3ccc(C)cc3)cc2)C1 (stereo not drawn)", "Group": "active"}
{"Molecule": "CC(C)OP(=O)(OC(C)C)C(=NCCO)NNc1ccc([N+](=O)[O-])cc1", "Group": "inactive"}
{"Molecule": "Cc1ccc(S(=O)(=O)NC(=O)C2C(=O)CC3(CCCCC3)CC2=O)cc1", "Group": "inactive"}
{"Molecule": "Cc1cc(Cl)ccc1NC(=O)/C(Cl)=C(/Cl)C(=O)O", "Group": "active"}
{"Molecule": "COC(=N)c1ccc(O)c(C)c1", "Group": "inactive"}
{"Molecule": "O=[N+]([O-])c1ccc(S(=O)(=O)Cc2ccccc2)c([N+](=O)[O-])c1", "Group": "active"}
{"Molecule": "Fc1ccc(Nc2ccc3ccccc3c2)cc1", "Group": "active"}
{"Molecule": "C/C1=C/C2OC(=O)C3(C)C2C(CC2(C)OC1=CC2=O)OC3(O)C(C)C (stereo not drawn)", "Group": "inactive"}
{"Molecule": "O=C1C(=C2CCCC2)CCC1CN1CCCCC1 (stereo not drawn)", "Group": "inactive"}
{"Molecule": "O=C1c2ccccc2C(=O)c2sc(Nc3ccccc3Cl)nc21", "Group": "active"}
{"Molecule": "Clc1ccc(/C(=C\\c2ccccc2)Cn2ccnc2)cc1", "Group": "active"}
{"Molecule": "O=[N+]([O-])c1cc[n+]([O-])c(Cl)c1", "Group": "active"}
{"Molecule": "Nc1cccc(-c2cc[cH-]c2)c1.[Fe+2].c1cc[cH-]c1", "Group": "inactive"}
{"Molecule": "CCCCCCC1OCC(O)C(OCCCC)O1 (stereo not drawn)", "Group": "inactive"}
{"Molecule": "COC(=O)c1cnc(Cl)c([N+](=O)[O-])c1", "Group": "active"}
{"Molecule": "O=[N+]([O-])c1ccc2nc(=S)[nH]n2c1", "Group": "inactive"}
{"Molecule": "C=COC(=O)N[C@H]1CCc2cc(OC)c(OC)c(OC)c2-c2ccc(SC)c(=O)cc21", "Group": "inactive"}
{"Molecule": "COc1ccc(C(C)c2cc3c(cc2OCC(C)=O)OCO3)cc1 (stereo not drawn)", "Group": "inactive"}
{"Molecule": "CCCCCCCCCCCCOCCOCCOCC(N)=O", "Group": "active"}
{"Molecule": "CN(C)CC(CN(C)C)C(=O)/C=C/c1ccc(Cl)cc1Cl", "Group": "active"}
